Data credit: PubChem BioAssay (NCATS)

- Experiment description: Quantitative High-Throughput drug screen in 47 multiple myeloma cell lines against the NCATS MIPE library collection: Karpas25_ECACC cell viability assay (AID 1918968; further: nearly all actives have a fitted effect of over 35% in size)
- Test conditions: Karpas25 myeloma viability, CellTiter-Glo ATP, 48 h; series mostly up to 45.8 µM
Records with an inconclusive call do not appear. The source made the active and inactive calls. The call rests on the fitted dose curve; in most records, active means well fitted cell-killing curve with a large enough effect; inconclusive means small, poorly fitted or top-dose-only effect, or effect the other way; inactive means no such curve, though single readings can be large or run the other way.
Your answer must be one of the following: YES (active), NO (inactive)

## Task Please share the test call associated with CC(N[C@H]1C[C@H]1c1ccccc1)c1ccc2c(c1)OCCO2 (stereo partly drawn) .
## Result NO

## Task Outcome logged for CC(C)(C)[C@]1(O)C[C@@H]2OC(=O)C[C@@]23C(=O)O[C@@H]2OC(=O)[C@H](O)C213 (stereo partly drawn) in this assay:
## Result NO

## Task # outcome recorded in this test, key = "CC(=O)OCC1=C(C(=O)O)N2C(=O)[C@@H](N)[C@@H]2SC1"
## Result NO

## Task Could you please tell me the result logged for "O=c1[nH]c2ccc(Cl)cc2c(N[C@@H]2CN3CCC2CC3)c1-c1nc2ccccc2[nH]1" in this assay?
## Result YES

## Task Tell me the assay call for "N#C[C@H](O[C@@H]1O[C@H](CO[C@@H]2O[C@H](CO)[C@H](O)[C@H](O)[C@H]2O)[C@H](O)[C@H](O)[C@H]1O)c1ccccc1" please.
## Result YES

## Task Entry "CC(=O)N(C)c1cccc(-c2ccnc3c(C(=O)c4cccs4)cnn23)c1" : call = ?
## Result NO

## Task What did the test return for "COc1cccc2c1[C@]13CCN(CC4CC4)[C@H](C2)[C@]1(OC)CCC(=O)C3" ?
## Result NO

## Task Please share the test call associated with "C[C@@H]1O[C@@H](O[C@@H]2C=C3CC[C@@H]4[C@@H](CC[C@]5(C)[C@H](c6ccc(=O)oc6)CC[C@@]45O)[C@@]3(C)CC2)[C@H](O)[C@H](O)[C@H]1O" .
## Result YES
